Cited source: patent US10259810B2

Catalogue of compounds with associated log10(EC50)
- target: ΔF508-CFTR (Homo sapiens, UniProt P13569, DEL508-508)
- Construct: host or cells: CFBE41o-, doxycycline-inducible
- Sequence (P13569 with tags, fused parts or gaps DEL508-508): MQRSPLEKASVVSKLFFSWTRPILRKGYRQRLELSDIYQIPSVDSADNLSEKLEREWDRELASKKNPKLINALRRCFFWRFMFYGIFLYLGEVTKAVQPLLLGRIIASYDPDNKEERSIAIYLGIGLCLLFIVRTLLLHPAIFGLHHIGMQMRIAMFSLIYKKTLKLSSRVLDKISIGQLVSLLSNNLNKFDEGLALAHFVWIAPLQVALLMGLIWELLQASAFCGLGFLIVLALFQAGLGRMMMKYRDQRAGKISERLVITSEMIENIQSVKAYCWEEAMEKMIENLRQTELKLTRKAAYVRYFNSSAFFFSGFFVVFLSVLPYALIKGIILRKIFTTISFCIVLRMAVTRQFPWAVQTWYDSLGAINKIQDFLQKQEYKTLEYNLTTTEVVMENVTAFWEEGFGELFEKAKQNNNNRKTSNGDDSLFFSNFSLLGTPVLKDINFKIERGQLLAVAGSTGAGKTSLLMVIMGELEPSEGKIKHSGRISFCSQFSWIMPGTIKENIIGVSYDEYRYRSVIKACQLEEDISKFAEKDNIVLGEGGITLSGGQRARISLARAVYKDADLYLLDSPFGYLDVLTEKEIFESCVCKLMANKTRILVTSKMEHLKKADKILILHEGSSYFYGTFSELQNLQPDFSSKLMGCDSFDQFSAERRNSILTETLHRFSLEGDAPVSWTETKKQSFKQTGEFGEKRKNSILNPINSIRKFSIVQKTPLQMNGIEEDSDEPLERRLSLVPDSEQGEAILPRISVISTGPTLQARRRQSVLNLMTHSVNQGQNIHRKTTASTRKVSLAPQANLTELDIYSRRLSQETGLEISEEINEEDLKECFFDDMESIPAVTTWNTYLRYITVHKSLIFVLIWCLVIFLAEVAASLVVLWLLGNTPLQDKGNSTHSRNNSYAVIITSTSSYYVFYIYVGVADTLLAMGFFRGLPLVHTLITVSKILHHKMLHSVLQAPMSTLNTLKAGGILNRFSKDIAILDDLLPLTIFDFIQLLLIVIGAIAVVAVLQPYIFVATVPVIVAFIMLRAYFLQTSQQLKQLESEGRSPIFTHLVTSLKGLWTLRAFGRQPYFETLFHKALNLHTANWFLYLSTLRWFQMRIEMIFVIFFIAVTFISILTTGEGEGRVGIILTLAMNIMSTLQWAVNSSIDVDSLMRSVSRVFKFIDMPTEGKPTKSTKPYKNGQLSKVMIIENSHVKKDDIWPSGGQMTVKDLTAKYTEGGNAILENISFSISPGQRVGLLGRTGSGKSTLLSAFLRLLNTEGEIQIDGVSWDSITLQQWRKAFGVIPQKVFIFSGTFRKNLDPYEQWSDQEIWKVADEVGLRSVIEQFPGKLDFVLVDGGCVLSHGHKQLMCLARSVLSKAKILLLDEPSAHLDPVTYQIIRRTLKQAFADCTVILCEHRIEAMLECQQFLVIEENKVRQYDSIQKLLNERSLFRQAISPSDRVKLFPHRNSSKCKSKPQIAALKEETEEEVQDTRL
- test: CFTR cell surface levels using HRP-tagged ΔF508-CFTR expressing CFBE cells, intrinsic corrector capacity
- Format: cell-based
- measurement.context: HRP-tagged ΔF508-CFTR expressing CFBE41o- cells; compound alone (intrinsic corrector capacity); 20 hours at 33° C.; read-out: EC50
Could you please treat all values as log10 of EC50 in µM?

The following compounds have reported results that may help.
COCC1CCN(c2cc(C(=O)NS(=O)(=O)c3cn(C)cn3)nc3c2c(C2CCC2)nn3-c2ccccc2)CC1 | -0.49
CN(C)S(=O)(=O)NC(=O)c1cc(-c2ccc(N3CCC(C#N)CC3)nc2)c2c(C3CCC3)nn(-c3ccccc3)c2n1 | -1.14
CC(C)c1nn(-c2cccc(N(C)C)c2)c2nc(C(=O)NS(=O)(=O)CCCN=[N+]=[N-])cc(-c3ccc(N=[N+]=[N-])cc3)c12 | -0.84
COC(C)C1CCN(c2cc(C(=O)NS(C)(=O)=O)nc3c2c(C2CCC2)nn3-c2ccccc2)CC1 (centres unmarked) | -0.44
Cc1nn(-c2ccccc2)c2nc(C(=O)NS(C)(=O)=O)cc(-c3ccc(N4CC(N(C)C)C4)cc3)c12 | -0.09
COCC1CCN(c2cc(C(=O)NS(=O)(=O)N3CCC(N4CCOCC4)C3)nc3c2c(C2CCC2)nn3-c2ccc(F)cc2)CC1 (centres unmarked) | -0.98

Inquiry: Please look up its log10(EC50): COCCN(C)c1ncc(-c2cc(C(=O)NS(C)(=O)=O)nc3c2c(C(C)C)nn3C2CCCCC2)cn1
Reply text: -0.26

Inquiry: Name the recorded log10(EC50) for Cc1nn(-c2ccccc2)c2nc(C(=O)NS(=O)(=O)C3CC3)cc(-c3ccc(N4CCOCC4)cc3)c12 .
Reply text: -0.08

Inquiry: Would you mind telling me what log10(EC50) value was observed for CCS(=O)(=O)NC(=O)c1cc(OCC2CCOCC2)c2c(C3CCC3)nn(-c3ccccc3)c2n1 ?
Reply text: -0.82

###

- target: ΔF508-CFTR (Homo sapiens, UniProt P13569, DEL508-508)
- Construct: host or cells: CFBE41o-, doxycycline-inducible
- test: CFTR cell surface levels using HRP-tagged ΔF508-CFTR expressing CFBE cells, intrinsic corrector capacity
- Format: cell-based
- Parameters: concentration or dose not given beside the values
- measurement.context: HRP-tagged ΔF508-CFTR expressing CFBE41o- cells; compound alone (intrinsic corrector capacity); 20 hours at 33° C.
- From the text: Measuring CFTR Cell Surface Levels Using HRP-Tagged ΔF508-CFTR Expressing CFBE Cells The HRP-tagged ΔF508-CFTR cell assay measures the expression of CFTR-ΔF508 at the plasma membrane. […] When HRP-tagged ΔF508-CFTR is present at the plasma membrane, the HRP enzyme activity can be measured. The amount of CFTR-ΔF508 that can be rescued to the plasma membrane is correlated with the amount of functional enzyme that can be measured. […]
Please respond with Met when measured % Activation is strictly beneath 200%, and with Not met in all other cases.

Recorded results for 5 molecules are shown here.
CN(C)S(=O)(=O)NC(=O)c1cc(N2CCC3C(CCN3C3CCOCC3)C2)c2c(C3CCC3)nn(-c3ccc(F)cc3)c2n1 (centres unmarked) | Not met
O=C(NS(=O)(=O)C1CC1)c1cc(OCC2CCOCC2)c2c(C3CCC3)nn(-c3ccccc3)c2n1 | Met
COCCS(=O)(=O)NC(=O)c1cc(-c2ccc(OC)cc2)c2c(C)nn(CC(C)C)c2n1 | Met
CC(C)c1nn(C2CCCCC2)c2nc(C(=O)NS(C)(=O)=O)cc(-c3cnc(N4CCOCC4)nc3)c12 | Met
CC(C)c1nn(-c2ccc(F)c(F)c2)c2nc(C(=O)NS(C)(=O)=O)cc(-c3ccc(N4CCOCC4)cc3)c12 | Not met

Now take the following molecule into account.
Inquiry: Please check: % Activation for CC(C)c1nn(-c2ccc(F)cc2)c2nc(C(=O)NS(C)(=O)=O)cc(OCC3(C)COC3)c12 , strictly under 200% or not?
Reply text: Met

###

- target: CFTR ΔF508 (Homo sapiens, UniProt P13569, DEL508-508)
- Construct: bronchial epithelial cells isolated from CF patients homozygous for the CFTR ΔF508 mutation; McGill University; Asterand; University of North Carolina hAEC-CF; host or cells: primary human bronchial epithelial cells from CF patients homozygous for ΔF508, differentiated at air-liquid interface
- Sequence (P13569 with tags, fused parts or gaps DEL508-508): as above
- test: Chronic TECC assay, primary bronchial epithelial cells of CF patients homozygous for CFTR ΔF508 (corrector, co-corrector and potentiator)
- Format: cell-based
- measurement.context: chronic TECC; AUC = full area under the curve upon forskolin stimulation; read-out: EC50 (nM) (AUC**)
experimental.readout: EC50

Guide cases for EC50, answers given:
CC(=O)N1CCC(F)(COc2cc(C(=O)NS(C)(=O)=O)nc3c2c(C2CCC2)nn3-c2ccccc2)CC1 | > 300 nM
COC1CCN(c2cc(C(=O)NS(C)(=O)=O)nc3c2c(C(C)C)nn3-c2ccnc(N3CCOCC3)c2)CC1 | > 1000 nM

Consider the additional compound presented here.
Inquiry: # input compound: CS(=O)(=O)NC(=O)c1cc(-c2ccc(N3CCC(C#N)CC3)nc2)c2c(C3CCC3)nn(-c3ccnc(N4CCOCC4)c3)c2n1 ; wanted: its EC50
Reply text: < 300 nM

###

- target: ΔF508-CFTR (Homo sapiens, UniProt P13569, DEL508-508)
- Construct: host or cells: CFBE41o-, doxycycline-inducible
- test: CFTR cell surface levels using HRP-tagged ΔF508-CFTR expressing CFBE cells, in the presence of a co-corrector
- Type: cell-based
- measurement.context: HRP-tagged ΔF508-CFTR CFBE cells, in the presence of 3 μM co-corrector
// Not satisfied strictly below 400% in % Activation; Satisfied otherwise

CCS(=O)(=O)NC(=O)c1cc(-c2ccc(N3CCOCC3)cc2)c2c(C(C)C)nn(C3CCCOC3)c2n1 (stereo not shown) | Not satisfied
CS(=O)(=O)NC(=O)c1cc(N2CCC(OCC(=O)N3CCCC3)CC2)c2c(C3CCC3)nn(-c3ccccc3)c2n1 | Satisfied
CS(=O)(=O)NC(=O)c1cc(N2CCC3(CCO3)CC2)c2c(C3CCC3)nn(-c3ccccc3)c2n1 | Not satisfied
CN(C)S(=O)(=O)NC(=O)c1cc(N2CCC(N3CCN(C4COC4)CC3)CC2)c2c(C3CCC3)nn(-c3ccc(F)cc3)c2n1 | Satisfied
CCS(=O)(=O)NC(=O)c1cc(-c2ccc(N3CCOCC3)nc2)c2c(C)nn(C3CCCCC3)c2n1 | Satisfied
CN(C)S(=O)(=O)NC(=O)c1cc(N2CCC(N3CCCC(C(F)(F)F)C3)CC2)c2c(C3CCC3)nn(-c3ccc(F)cc3)c2n1 (stereo not shown) | Satisfied

Inquiry: Is % Activation at least 400%? Consider CCS(=O)(=O)NC(=O)c1cc(-c2cnc(N3CCOCC3)nc2)c2c(C(C)C)nn(-c3cccc(N(C)C)c3)c2n1
Reply text: Satisfied

Inquiry: Does the reported % Activation for CC(C)c1nn(C2CCCCC2)c2nc(C(=O)NS(C)(=O)=O)cc(-c3ccc(N4CCOCC4)nc3)c12 fall at or above the 400% mark?
Reply text: Satisfied

Inquiry: Please indicate if the recorded % Activation for CCS(=O)(=O)NC(=O)c1cc(-c2ccc(N3CCOCC3)cc2)c2c(C)nn(-c3ccc(F)c(F)c3)c2n1 meets or exceeds 400%.
Reply text: Satisfied

Inquiry: Identify whether the reported % Activation of the following molecule is 400% or greater: O=C(NS(=O)(=O)C1CCOC1)c1cc(N2CCC(CN3CCOCC3)CC2)c2c(C3CCC3)nn(-c3ccc(F)cc3)c2n1 (stereo not shown)
Reply text: Satisfied

Inquiry: Is reported % Activation greater than or equal to 400% here: COC1CCN(c2cc(C(=O)NS(=O)(=O)C3CCN(C(=O)OCc4ccccc4)CC3)nc3c2c(C2CCC2)nn3-c2ccccc2)CC1
Reply text: Satisfied

Inquiry: Please tell me: is the molecule Cc1nn(-c2cccc(OC(F)(F)F)c2)c2nc(C(=O)NS(C)(=O)=O)cc(-c3ccc(N4CCOCC4)cc3)c12 at or over 400% in terms of % Activation?
Reply text: Not satisfied

Inquiry: In plain terms: is recorded % Activation at least 400% for CS(=O)(=O)NC(=O)c1cc(C2CCN(CC3CCOCC3)CC2)c2c(C3CCC3)nn(-c3ccc(F)cc3)c2n1 ?
Reply text: Not satisfied

Inquiry: Could you tell me if the measured % Activation of CN(C1CCOCC1)S(=O)(=O)NC(=O)c1cc(N2CCC(N3CCOCC3)CC2)c2c(C3CCC3)nn(-c3ccc(F)cc3)c2n1 reaches 400% or more?
Reply text: Satisfied

Inquiry: Quick check: does COCC1CCN(c2cc(C(=O)NS(=O)(=O)CCCO)nc3c2c(C2CCC2)nn3-c2ccc(F)cc2)CC1 have % Activation greater than or equal to 400%?
Reply text: Satisfied

Inquiry: Can CCN(C)S(=O)(=O)NC(=O)c1cc(N2CCC(N3CCOCC3)CC2)c2c(C3CCC3)nn(-c3ccc(F)cc3)c2n1 be said to have % Activation at or above 400%?
Reply text: Satisfied
